The reported numbers originate from paper PMC10052025.

# Assayed System: OATP1B1 (Homo sapiens, UniProt Q9Y6L6)
# Experimental Details: cell-based
# Conditions: IC50, Co-incubation only (no preincubation); FBS-DMEM row; [3H]-E217βG 1 µM, 2 min
pIC50: −log10 of the molar value.
Property Name: pIC50

1. COC(=O)C1=C(C)NC(C)=C(C(=O)OCCN(C)Cc2ccccc2)C1c1cccc([N+](=O)[O-])c1 (stereo not shown) [nicardipine] ... 5.55

----------
# Assayed System: UniProt:Q9Y6L6
# Sequence (Q9Y6L6 1-691): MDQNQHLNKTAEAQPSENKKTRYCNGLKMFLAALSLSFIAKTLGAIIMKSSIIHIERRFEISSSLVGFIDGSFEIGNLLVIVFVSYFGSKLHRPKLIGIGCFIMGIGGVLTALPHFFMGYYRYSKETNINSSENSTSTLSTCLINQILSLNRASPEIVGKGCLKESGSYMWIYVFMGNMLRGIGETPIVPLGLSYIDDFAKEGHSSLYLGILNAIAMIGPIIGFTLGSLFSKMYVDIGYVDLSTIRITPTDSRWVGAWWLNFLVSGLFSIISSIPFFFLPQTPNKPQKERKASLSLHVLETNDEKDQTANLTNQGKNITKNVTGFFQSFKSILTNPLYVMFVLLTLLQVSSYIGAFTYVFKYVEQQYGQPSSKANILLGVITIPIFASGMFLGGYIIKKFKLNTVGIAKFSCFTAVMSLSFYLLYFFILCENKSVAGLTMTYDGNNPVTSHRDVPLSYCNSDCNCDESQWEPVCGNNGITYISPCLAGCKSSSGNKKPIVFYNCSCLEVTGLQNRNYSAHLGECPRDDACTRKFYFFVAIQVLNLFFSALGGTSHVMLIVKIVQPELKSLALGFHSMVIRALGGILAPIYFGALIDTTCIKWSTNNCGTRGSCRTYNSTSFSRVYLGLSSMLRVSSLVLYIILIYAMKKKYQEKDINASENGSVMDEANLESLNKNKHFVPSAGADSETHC
# Experimental Details: cell-based
# Conditions: IC50, Pre + co-incubation; 30 min preincubation in FBS-DMEM (9% FBS); [3H]-E217βG 1 µM, 2 min
Property Name: IC50 (nM)

1) COC(=O)C1=C(C)NC(C)=C(C(=O)OCCN(C)Cc2ccccc2)C1c1cccc([N+](=O)[O-])c1 (stereo not shown) ... 1570

----------
# Assayed System: OATP1B1 (Homo sapiens, UniProt Q9Y6L6)
# Sequence (Q9Y6L6 1-691): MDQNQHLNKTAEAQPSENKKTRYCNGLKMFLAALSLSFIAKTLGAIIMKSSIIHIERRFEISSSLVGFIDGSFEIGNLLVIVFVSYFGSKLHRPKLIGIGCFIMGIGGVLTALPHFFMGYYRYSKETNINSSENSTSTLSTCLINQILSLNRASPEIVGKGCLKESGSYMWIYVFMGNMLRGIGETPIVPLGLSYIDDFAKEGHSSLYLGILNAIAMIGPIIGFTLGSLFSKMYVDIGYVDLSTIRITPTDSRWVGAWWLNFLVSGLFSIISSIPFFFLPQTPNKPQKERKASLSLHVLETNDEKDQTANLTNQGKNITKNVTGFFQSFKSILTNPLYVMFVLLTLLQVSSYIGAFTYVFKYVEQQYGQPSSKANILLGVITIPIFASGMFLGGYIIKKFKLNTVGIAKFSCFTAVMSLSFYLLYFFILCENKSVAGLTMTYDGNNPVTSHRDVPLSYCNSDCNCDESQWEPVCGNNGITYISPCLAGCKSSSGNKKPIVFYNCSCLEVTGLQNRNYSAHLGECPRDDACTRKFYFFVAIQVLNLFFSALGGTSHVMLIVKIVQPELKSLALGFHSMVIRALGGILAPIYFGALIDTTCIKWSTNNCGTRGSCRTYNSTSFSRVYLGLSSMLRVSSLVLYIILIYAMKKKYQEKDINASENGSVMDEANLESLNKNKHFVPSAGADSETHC
# Experimental Details: cell-based
# Conditions: IC50, Pre + co-incubation; 30 min preincubation in protein-free HBSS buffer; [3H]-E217βG 1 µM, 2 min
pIC50: −log10 of the molar value.
Property Name: pIC50

1) COC(=O)C1=C(C)NC(C)=C(C(=O)OCCN(C)Cc2ccccc2)C1c1cccc([N+](=O)[O-])c1 (stereo not shown) ... 6.01
